Values compiled from patent US20250136687A1.

# measured.target: T1, recombinant human CD3ε-ECD His protein (human, UniProt P07766 23-126)
# T1 construct: extracellular domain; also called human CD3ε-His; CD3ε antigen protein; not shown: His tag
# T1 sequence (P07766 23-126): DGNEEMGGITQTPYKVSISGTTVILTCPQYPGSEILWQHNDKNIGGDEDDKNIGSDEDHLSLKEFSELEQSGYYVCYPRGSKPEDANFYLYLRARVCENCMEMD
# assay.protocol: SPR (Biacore), antibody captured on Protein A chip
Exam item: assign class 1 to entries whose kon is below 300000 M⁻¹ s⁻¹ and class 0 to entries at or above 300000 M⁻¹ s⁻¹. Note that a value of exactly 300000 M⁻¹ s⁻¹ receives class 0.

Illustrative cases are given below, each with its answer.
binder | label.class
7-35.6 human-murine chimeric antibody (antibody, human IgG1, lambda, V domains shown, Human IgG1 chimera) VH: EVQLVESGGGLVQPKGSLKLSCAASGFTFNTYAMNWVRQAPGKGLEWVGRIRSKINNYATYYGDSVKDRFTISRDDSQSMFYLQMNNLKTEDTAMYYCVIHENYGSISWFAYWGQGTLVTVSA VL: QAVVTQESTLTTSPGETVTLTCRSSTGAVTTSNYANWVQEKPDHLFTGLIGGTNNRAPGVPARFSGSLIGDKAALTITGAQTEDEAIYFCALWYSNHWVFGGGTKLTVLG | class 1
5-7.13 human-murine chimeric antibody (antibody, human IgG1, kappa, V domains shown, Human IgG1 chimera) VH: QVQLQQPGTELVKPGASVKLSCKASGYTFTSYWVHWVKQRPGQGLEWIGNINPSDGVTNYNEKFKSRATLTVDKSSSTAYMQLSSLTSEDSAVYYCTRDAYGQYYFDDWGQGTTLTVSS VL: DIVMSQSPSSLVVSAGEKVTMSCKSSQSLLNSRTRKNYLAWYQQKPGQSPKLLIYWASVRDSGVPDRFTGSGSGTDFTLTISNVQAEDLAVYYCIQSYYLRTFGGGTILEIKR | class 0
40G5c-hIgG1 (antibody, V domains shown) VH: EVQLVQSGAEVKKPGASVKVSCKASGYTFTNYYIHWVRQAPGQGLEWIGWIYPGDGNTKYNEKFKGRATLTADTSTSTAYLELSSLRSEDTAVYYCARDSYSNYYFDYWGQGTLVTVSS VL: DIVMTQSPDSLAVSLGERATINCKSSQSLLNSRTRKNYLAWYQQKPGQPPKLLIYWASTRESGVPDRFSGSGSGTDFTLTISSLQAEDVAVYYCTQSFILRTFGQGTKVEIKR | class 0
1-22.6 human-murine chimeric antibody (antibody, human IgG1, kappa, V domains shown) VH: QIPLVQSGPELKKPGETVKISCKTSGYTFTSYGMSWVKQAPGKGLKWMGWINTYSGVPTYADDFKGRFVFSLDTSASTAFLQINNLKNEDTATYFCARLKNNPFCWGQGSTLTVFS VL: DVLMTQSPLSLPVRLGDQASISCRSSQLILHSNGNTYLEWYLQKPGQSPKLLIYKVSNRFSGVPDRFSGSGSGTDFTLKISRVEAEDLGVYYCFQGSHFPWTFGGGTKLEIKR | class 1
6-44.5 human-murine chimeric antibody (antibody, human IgG1, kappa, V domains shown, Human IgG1 chimera) VH: EVQLQQSGPELVKPGASVKMSCKASGHTFTSHIMHWVKQKPGQGLEWIGYINPNNDRTEYSEKFKGKATLTSDKSSSTAYMELSSLTSEDSAVYYCAGEAYYSNSLYAMDYWGQGTSVTVSS VL: DIVMSQSPSSLAVSAGEKVTMSCKSSQSLFNSRTRKNYLAWYQQKPGQSPELLIYWASTRESGVPVRFTGSGSGTDFTLTISSVQAEDLAVYYCKQSYYLRTFGGGTKLEVKR | class 0

Is kon strictly under 300000 M⁻¹ s⁻¹ for the entry 5-40.21 human-murine chimeric antibody (antibody, human IgG1, kappa, V domains shown, Human IgG1 chimera) VH: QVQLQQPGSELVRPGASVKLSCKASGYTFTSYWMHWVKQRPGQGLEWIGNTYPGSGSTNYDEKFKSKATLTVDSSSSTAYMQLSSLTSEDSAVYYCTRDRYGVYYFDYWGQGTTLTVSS VL: DIVMSQSPSSLAVSAGEKVTMSCKSSQSLLNSRTRKNYLAWYQQKPGQSPKLLIYWASTRESGVPDRFSGSGSGTDFTLTISSVQAEDLAVYYCTQSYNLRTFGGGTKLEIKR ? class 0
